Give IC50 for every item shown.

For Protein arginine N-methyltransferase 5 (Homo sapiens, UniProt O14744), give IC50 of the listed molecule: `Cn1ncc(-c2ccc3c(=O)[nH]nc(CN)c3c2)c1-c1cccc(Cl)c1C#N`
2000 nM

For Protein arginine N-methyltransferase 5 (Homo sapiens, UniProt O14744), give IC50 of the listed molecule: `Cc1c(-c2ccc3c(=O)[nH]nc(CN)c3c2)cnn1C`
50 nM

For Protein arginine N-methyltransferase 5 (Homo sapiens, UniProt O14744), give IC50 of the listed molecule: `Cn1ncc(-c2ccc3c(=O)[nH]nc(CN)c3c2)c1-c1c(F)cccc1C#N`
4000 nM

For Protein arginine N-methyltransferase 5 (Homo sapiens, UniProt O14744), give IC50 of the listed molecule: `CC(C)n1cc(-c2ccc3c(=O)[nH]nc(CN)c3c2)cn1`
670 nM

For Protein arginine N-methyltransferase 5 (Homo sapiens, UniProt O14744), give IC50 of the listed molecule: `NCc1nnc(O)c2ccc(-c3ccccc3)cc12`
4300 nM

For Protein arginine N-methyltransferase 5 (Homo sapiens, UniProt O14744), give IC50 of the listed molecule: `CCc1cccc(-c2c(-c3ccc4c(=O)[nH]nc(CN)c4c3)cnn2C)c1C#N`
2000 nM

For Protein arginine N-methyltransferase 5 (Homo sapiens, UniProt O14744), give IC50 of the listed molecule: `Cc1cccc(-c2c(-c3ccc4c(=O)[nH]nc(CN)c4c3)cnn2C)c1C#N`
3000 nM

For Protein arginine N-methyltransferase 5 (Homo sapiens, UniProt O14744), give IC50 of the listed molecule: `NCc1n[nH]c(=O)c2ccc(-c3cccnn3)cc12`
30100 nM

For Protein arginine N-methyltransferase 5 (Homo sapiens, UniProt O14744), give IC50 of the listed molecule: `NCc1n[nH]c(=O)c2ccc(-c3ccccn3)cc12`
95800 nM

For Protein arginine N-methyltransferase 5 (Homo sapiens, UniProt O14744), give IC50 of the listed molecule: `CCCn1cc(-c2ccc3c(=O)[nH]nc(CN)c3c2)cn1`
320 nM

For Protein arginine N-methyltransferase 5 (Homo sapiens, UniProt O14744), give IC50 of the listed molecule: `NCc1n[nH]c(=O)c2ccc(-c3cnsc3)cc12`
710 nM

For Protein arginine N-methyltransferase 5 (Homo sapiens, UniProt O14744), give IC50 of the listed molecule: `NCc1n[nH]c(=O)c2ccc(-c3cccnc3)cc12`
910 nM

For Protein arginine N-methyltransferase 5 (Homo sapiens, UniProt O14744), give IC50 of the listed molecule: `Cn1ncc(-c2ccc3c(=O)[nH]nc(CN)c3c2)c1-c1ccccc1C#N`
4000 nM

For Protein arginine N-methyltransferase 5 (Homo sapiens, UniProt O14744), give IC50 of the listed molecule: `COc1cccc(-c2c(-c3ccc4c(=O)[nH]nc(CN)c4c3)cnn2C)c1C#N`
1000 nM

For Protein arginine N-methyltransferase 5 (Homo sapiens, UniProt O14744), give IC50 of the listed molecule: `Cc1ccc(-c2ccc3c(=O)[nH]nc(CN)c3c2)cn1`
5800 nM

For Protein arginine N-methyltransferase 5 (Homo sapiens, UniProt O14744), give IC50 of the listed molecule: `Cn1ncc(-c2ccc3c(=O)[nH]nc(CN)c3c2)c1-c1ccccc1`
3000 nM

For Protein arginine N-methyltransferase 5 (Homo sapiens, UniProt O14744), give IC50 of the listed molecule: `Cn1ncc(-c2ccc3c(=O)[nH]nc(CN)c3c2)c1-c1cccc(OC2CC2)c1C#N`
1000 nM

For Protein arginine N-methyltransferase 5 (Homo sapiens, UniProt O14744), give IC50 of the listed molecule: `CCn1cc(-c2ccc3c(=O)[nH]nc(CN)c3c2)cn1`
510 nM

The reported numbers originate from ChEMBL document CHEMBL5046262.
